# Test system: OVCAR-8 ovarian
# MEASUREMENT_DESCRIPTION: NCI tumour cell line growth inhibition, 48 h
MEASURED_ATTRIBUTE: TGI (µM)
One number for each entry, in µM.

{"COMPOUND": "OC1(c2ccccc2)CSC2=Nc3ccccc3C3CCN1N23 (stereo unspecified)", "UNITS_SYMBOL": "µM", "TGI": 43.5}
{"COMPOUND": "BrCc1ccc(CBr)cc1", "UNITS_SYMBOL": "µM", "TGI": 20.9}
{"COMPOUND": "N#Cc1c(N)[nH]c2ccc(Sc3ccccc3)cc12", "UNITS_SYMBOL": "µM", "TGI": 12}
{"COMPOUND": "COc1ccc(C(Cl)=C(c2ccc(OCCN(C)C)cc2)c2ccc(OCCN(C)C)cc2)cc1", "UNITS_SYMBOL": "µM", "TGI": 4.06}

Moving on to the next compound.
For O=[N+]([O-])c1cc(S(=O)(=O)Oc2ccccc2)ccc1Cl , what is its reported TGI?
19.7

These entries and their values trace back to PubChem BioAssay (NCI).
